Target: Hemagglutinin of influenza A/Japan/305/57 (H2N2), on inactivated whole virions (Influenza A virus A/Japan/305/1957 …, UniProt P03451 16-562)
Test: ELISA, B cell culture supernatant on inactivated whole virions
Entries and their log10 OD450 values follow.
A difference of one corresponds to tenfold OD450; all values are log10 with OD450 in OD450.

[[record]]
binder = "TCN-539 (5056_A08) (antibody, V domains shown) VH: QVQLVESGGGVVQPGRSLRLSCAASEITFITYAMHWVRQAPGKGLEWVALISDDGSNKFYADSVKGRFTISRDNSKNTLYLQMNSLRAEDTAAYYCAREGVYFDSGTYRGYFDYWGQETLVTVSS VL: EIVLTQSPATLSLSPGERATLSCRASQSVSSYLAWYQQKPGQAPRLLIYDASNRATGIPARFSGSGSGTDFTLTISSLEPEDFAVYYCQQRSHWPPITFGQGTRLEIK"
test_readout = "log10 OD450"
observed_result = -1.22


Consider now this further binder.
## Task Value lookup for log10 OD450; key = TCN-557 (5081_A04) (antibody, V domains shown) VH: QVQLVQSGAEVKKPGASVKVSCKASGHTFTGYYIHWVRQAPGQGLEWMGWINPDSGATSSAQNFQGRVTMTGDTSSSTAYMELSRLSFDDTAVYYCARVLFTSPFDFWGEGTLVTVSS VL: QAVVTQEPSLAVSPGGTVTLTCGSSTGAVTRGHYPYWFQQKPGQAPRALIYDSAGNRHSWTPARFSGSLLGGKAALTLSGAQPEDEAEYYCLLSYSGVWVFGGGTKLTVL
## Result 0.43
